Values of Ki for Prostaglandin E2 receptor EP4 subtype (Homo sapiens), collected from a number of published sources:
Each entry belongs to exactly one class, chosen by where its Ki falls: lower bin (below 0.1 µM), middle bin (0.1 µM to below 5 µM), upper bin (5 µM or more)

{"columns": ["Molecule", "Class name"],
 "data": [
  ["CCCCCCCc1ccc2c(C(=O)Nc3cccc(OCC(=O)O)c3)cccc2c1", "upper bin"],
  ["CCCCCC(O)c1ccc(N2C(=O)NC(=O)C2CCCc2ccc(C(=O)O)s2)cc1 (centres unmarked)", "upper bin"],
  ["Cc1ccc(N2CCC(O)CC2)nc1C(=O)Nc1c(C)cc(C(=O)O)cc1C", "lower bin"],
  ["CCCCc1cc(Cl)ccc1-c1cccc(C(O)/C=C/[C@H]2CCC(=O)N2CCCc2ccc(C(=O)O)cc2)c1 (some centres unmarked)", "upper bin"],
  ["O=C(O)c1ccc(CNC(=O)C2CCCCC2Cc2ccccc2)cc1 (single isomer, unassigned)", "middle bin"],
  ["CCCCCCc1ccc2c(C(=O)Nc3cccc(OCC(=O)O)c3)cccc2c1", "upper bin"],
  ["O=C(O)c1ccc(CCC[C@@H]2C(=O)C[C@@H](O)[C@@H]2C#Cc2ccccc2)s1", "middle bin"],
  ["CCCCCCCCCC[C@@H]1[C@@H](CCCc2ccc(C(=O)O)s2)[C@H](Cl)C[C@H]1O", "upper bin"],
  ["O=C(O)c1ccc(CNC(=O)c2cc(-c3cccc(C(F)(F)F)c3)ccc2Oc2ccc(F)cc2)c(F)c1", "lower bin"],
  ["CCCCCC(O)CCCN1CCC(=O)N1CCc1ccc(C(=O)O)cc1 (centres unmarked)", "middle bin"],
  ["CCCCCC(O)c1ccc(N2C(=O)CC[C@@H]2COCc2csc(C(=O)O)c2)cc1 (some centres unmarked)", "upper bin"],
  ["CCCCCC(F)c1ccc(N2C(=O)CC[C@@H]2COCc2cc(C(=O)O)cs2)cc1 (some centres unmarked)", "upper bin"],
  ["CCCCC[C@H](O)CCN1C(=O)CC[C@@H]1COCc1ccc(C(=O)O)s1", "upper bin"],
  ["COC(=O)c1ccc([C@H](C)NC(=O)c2c(Cl)sc(Cl)c2Cc2cccc(Cl)c2)cc1", "middle bin"],
  ["COc1ccc(CC2=C(C(=O)NCc3ccc(C(=O)O)cc3)CCCC2)cc1", "lower bin"],
  ["CCCCC[C@H](O)c1ccc(N2C(=O)NC(=O)C2CCCc2ccc(C(=O)O)s2)cc1 (stereo in doubt)", "upper bin"],
  ["COc1cccc(CC2CCCCC2C(=O)NCc2ccc(C(=O)O)cc2)c1OC (single isomer, unassigned)", "middle bin"]
]}

====

pKi: −log10 of the molar value.
Values of pKi for Prostaglandin E2 receptor EP4 subtype (Homo sapiens, UniProt P35408), collected from a number of published sources:

{"columns": ["Compound", "pKi"],
 "data": [
  ["O=C(O)c1ccc(CCC[C@@H]2[C@@H](C[S+]([O-])c3cc(Cl)cc(Cl)c3)[C@H](O)C[C@H]2Cl)s1 (stereo partly drawn)", "< 5.00"],
  ["CCCCCC(O)c1ccc(N2C(=O)CC[C@@H]2CCSc2nc(C(=O)O)cs2)cc1 (stereo partly drawn)", "< 5.00"],
  ["CCCCc1ccc2c(C(=O)Nc3cccc(OCC(=O)O)c3)cccc2c1", "< 5.00"],
  ["O=C(O)c1ccc(CCC[C@H]2CCC(=O)N2CCc2cc(Cl)cc(Cl)c2)s1", "< 5.00"],
  ["CCCCC[C@H](O)c1ccc(N2C(=O)CO[C@@H]2CCCc2ccc(C(=O)O)s2)cc1 (single isomer, unassigned)", "< 5.00"],
  ["N#Cc1ccc(-c2ccc(Oc3ccc(F)cc3)c(C(=O)NCc3ccc(C(=O)O)cc3)c2)cc1", "> 7.00"]
]}
